# cond: in methanol, 308.15 K
property name: solubility (mole fraction)
Response field accepts a number only; no unit should be typed.

Incoming: I would be grateful if you could share the reported solubility (mole fraction) for CSCC1CN(/N=C/c2ccc([N+](=O)[O-])o2)C(=O)O1 (stereo unspecified) .
Outgoing: 9.85e-05

* * *

# cond: in acetonitrile, 328.15 K
property name: solubility (mole fraction)
Response field accepts a number only; no unit should be typed.

Incoming: I would be grateful if you could share the reported solubility (mole fraction) for CSCC1CN(/N=C/c2ccc([N+](=O)[O-])o2)C(=O)O1 (stereo unspecified) .
Outgoing: 0.0101

* * *

# cond: in water, 318.15 K
property name: solubility (mole fraction)
Response field accepts a number only; no unit should be typed.

Incoming: I would be grateful if you could share the reported solubility (mole fraction) for CSCC1CN(/N=C/c2ccc([N+](=O)[O-])o2)C(=O)O1 (stereo unspecified) .
Outgoing: 6.16e-05

* * *

# cond: in acetic acid, 303.15 K
property name: solubility (mole fraction)
Response field accepts a number only; no unit should be typed.

Incoming: I would be grateful if you could share the reported solubility (mole fraction) for CSCC1CN(/N=C/c2ccc([N+](=O)[O-])o2)C(=O)O1 (stereo unspecified) .
Outgoing: 0.000364

* * *

# cond: in methanol, 333.15 K
property name: solubility (mole fraction)
Response field accepts a number only; no unit should be typed.

Incoming: I would be grateful if you could share the reported solubility (mole fraction) for CSCC1CN(/N=C/c2ccc([N+](=O)[O-])o2)C(=O)O1 (stereo unspecified) .
Outgoing: 0.000403

* * *

# cond: in dichloromethane, 303.15 K
property name: solubility (mole fraction)
Response field accepts a number only; no unit should be typed.

Incoming: I would be grateful if you could share the reported solubility (mole fraction) for CSCC1CN(/N=C/c2ccc([N+](=O)[O-])o2)C(=O)O1 (stereo unspecified) .
Outgoing: 0.00242

* * *

# cond: in water, 298.15 K
property name: solubility (mole fraction)
Response field accepts a number only; no unit should be typed.

Incoming: I would be grateful if you could share the reported solubility (mole fraction) for CSCC1CN(/N=C/c2ccc([N+](=O)[O-])o2)C(=O)O1 (stereo unspecified) .
Outgoing: 2.06e-05

* * *

# cond: in acetone, 303.15 K
property name: solubility (mole fraction)
Response field accepts a number only; no unit should be typed.

Incoming: I would be grateful if you could share the reported solubility (mole fraction) for CSCC1CN(/N=C/c2ccc([N+](=O)[O-])o2)C(=O)O1 (stereo unspecified) .
Outgoing: 0.00178

* * *

# cond: in DMF, 323.15 K
property name: solubility (mole fraction)
Response field accepts a number only; no unit should be typed.

Incoming: I would be grateful if you could share the reported solubility (mole fraction) for CSCC1CN(/N=C/c2ccc([N+](=O)[O-])o2)C(=O)O1 (stereo unspecified) .
Outgoing: 0.0405

* * *

# cond: in THF, 313.15 K
property name: solubility (mole fraction)
Response field accepts a number only; no unit should be typed.

Incoming: I would be grateful if you could share the reported solubility (mole fraction) for CSCC1CN(/N=C/c2ccc([N+](=O)[O-])o2)C(=O)O1 (stereo unspecified) .
Outgoing: 0.00166

* * *

# cond: in DMF, 298.15 K
property name: solubility (mole fraction)
Response field accepts a number only; no unit should be typed.

Incoming: I would be grateful if you could share the reported solubility (mole fraction) for CSCC1CN(/N=C/c2ccc([N+](=O)[O-])o2)C(=O)O1 (stereo unspecified) .
Outgoing: 0.015

* * *

# cond: in isopropanol, 293.15 K
property name: solubility (mole fraction)
Response field accepts a number only; no unit should be typed.

Incoming: I would be grateful if you could share the reported solubility (mole fraction) for CSCC1CN(/N=C/c2ccc([N+](=O)[O-])o2)C(=O)O1 (stereo unspecified) .
Outgoing: 1.45e-05

* * *

# cond: in ethyl acetate, 313.15 K
property name: solubility (mole fraction)
Response field accepts a number only; no unit should be typed.

Incoming: I would be grateful if you could share the reported solubility (mole fraction) for CSCC1CN(/N=C/c2ccc([N+](=O)[O-])o2)C(=O)O1 (stereo unspecified) .
Outgoing: 0.000651

* * *

# cond: in acetone, 308.15 K
property name: solubility (mole fraction)

Incoming: I would be grateful if you could share the reported solubility (mole fraction) for CSCC1CN(/N=C/c2ccc([N+](=O)[O-])o2)C(=O)O1 (stereo unspecified) .
Outgoing: 0.00225

* * *

# cond: in ethyl acetate, 293.15 K
property name: solubility (mole fraction)
Response field accepts a number only; no unit should be typed.

Incoming: I would be grateful if you could share the reported solubility (mole fraction) for CSCC1CN(/N=C/c2ccc([N+](=O)[O-])o2)C(=O)O1 (stereo unspecified) .
Outgoing: 0.000224

* * *

# cond: in THF, 308.15 K
property name: solubility (mole fraction)
Response field accepts a number only; no unit should be typed.

Incoming: I would be grateful if you could share the reported solubility (mole fraction) for CSCC1CN(/N=C/c2ccc([N+](=O)[O-])o2)C(=O)O1 (stereo unspecified) .
Outgoing: 0.00131

* * *

# cond: in ethanol, 313.15 K
property name: solubility (mole fraction)

Incoming: I would be grateful if you could share the reported solubility (mole fraction) for CSCC1CN(/N=C/c2ccc([N+](=O)[O-])o2)C(=O)O1 (stereo unspecified) .
Outgoing: 6.49e-05

* * *

# cond: in water, 333.15 K
property name: solubility (mole fraction)
Response field accepts a number only; no unit should be typed.

Incoming: I would be grateful if you could share the reported solubility (mole fraction) for CSCC1CN(/N=C/c2ccc([N+](=O)[O-])o2)C(=O)O1 (stereo unspecified) .
Outgoing: 0.000129

* * *

# cond: in acetone, 298.15 K
property name: solubility (mole fraction)
Response field accepts a number only; no unit should be typed.

Incoming: I would be grateful if you could share the reported solubility (mole fraction) for CSCC1CN(/N=C/c2ccc([N+](=O)[O-])o2)C(=O)O1 (stereo unspecified) .
Outgoing: 0.0014

* * *

# cond: in acetonitrile, 313.15 K
property name: solubility (mole fraction)
Response field accepts a number only; no unit should be typed.

Incoming: I would be grateful if you could share the reported solubility (mole fraction) for CSCC1CN(/N=C/c2ccc([N+](=O)[O-])o2)C(=O)O1 (stereo unspecified) .
Outgoing: 0.00562

* * *

# cond: in acetonitrile, 298.15 K
property name: solubility (mole fraction)
Response field accepts a number only; no unit should be typed.

Incoming: I would be grateful if you could share the reported solubility (mole fraction) for CSCC1CN(/N=C/c2ccc([N+](=O)[O-])o2)C(=O)O1 (stereo unspecified) .
Outgoing: 0.00296

* * *

# cond: in acetonitrile, 303.15 K
property name: solubility (mole fraction)
Response field accepts a number only; no unit should be typed.

Incoming: I would be grateful if you could share the reported solubility (mole fraction) for CSCC1CN(/N=C/c2ccc([N+](=O)[O-])o2)C(=O)O1 (stereo unspecified) .
Outgoing: 0.00369

* * *

# cond: in ethyl acetate, 298.15 K
property name: solubility (mole fraction)
Response field accepts a number only; no unit should be typed.

Incoming: I would be grateful if you could share the reported solubility (mole fraction) for CSCC1CN(/N=C/c2ccc([N+](=O)[O-])o2)C(=O)O1 (stereo unspecified) .
Outgoing: 0.000297

* * *

# cond: in acetic acid, 313.15 K
property name: solubility (mole fraction)
Response field accepts a number only; no unit should be typed.

Incoming: I would be grateful if you could share the reported solubility (mole fraction) for CSCC1CN(/N=C/c2ccc([N+](=O)[O-])o2)C(=O)O1 (stereo unspecified) .
Outgoing: 0.000624

* * *

# cond: in THF, 328.15 K
property name: solubility (mole fraction)
Response field accepts a number only; no unit should be typed.

Incoming: I would be grateful if you could share the reported solubility (mole fraction) for CSCC1CN(/N=C/c2ccc([N+](=O)[O-])o2)C(=O)O1 (stereo unspecified) .
Outgoing: 0.00322

* * *

# cond: in acetic acid, 298.15 K
property name: solubility (mole fraction)
Response field accepts a number only; no unit should be typed.

Incoming: I would be grateful if you could share the reported solubility (mole fraction) for CSCC1CN(/N=C/c2ccc([N+](=O)[O-])o2)C(=O)O1 (stereo unspecified) .
Outgoing: 0.000275

* * *

# cond: in methanol, 293.15 K
property name: solubility (mole fraction)
Response field accepts a number only; no unit should be typed.

Incoming: I would be grateful if you could share the reported solubility (mole fraction) for CSCC1CN(/N=C/c2ccc([N+](=O)[O-])o2)C(=O)O1 (stereo unspecified) .
Outgoing: 3.84e-05

* * *

# cond: in isopropanol, 333.15 K
property name: solubility (mole fraction)
Response field accepts a number only; no unit should be typed.

Incoming: I would be grateful if you could share the reported solubility (mole fraction) for CSCC1CN(/N=C/c2ccc([N+](=O)[O-])o2)C(=O)O1 (stereo unspecified) .
Outgoing: 0.000146
